The measured values listed here are drawn from PubChem BioAssay AID1918956.

System: OVCAR-5 complex spheroids, viability
Experiment: Anticancer human tumor OVCAR-5 cell line growth inhibition;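 further: spheroids exposed to agents for seven days; 100% = DMSO vehicle control wells viability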
Details: second compound 0.1 µM; first compound 0.0949 µM; stronger effect = lower value
QUANTITY_KIND: viability, T/C (%)

compound="O=C(C=Cc1cccc(S(=O)(=O)Nc2ccccc2)c1)NO + NC1CC1c1ccc(-c2cccc(O)c2)cc1" unit_tag=% reported_value=54.6
compound="COc1cc(C2c3cc4c(cc3C(OC3OC5COC(C)OC5C(O)C3O)C3COC(=O)C23)OCO4)cc(OC)c1O (stereo not given) + NC1CC1c1ccc(-c2cccc(O)c2)cc1" unit_tag=% reported_value=80.2
compound="Nc1ccn(C2OC(CO)C(O)C2(F)F)c(=O)n1 (stereo not given) + NC1CCC(NC2CC2c2ccccc2)CC1" unit_tag=% reported_value=30.7
compound="CCc1c2c(nc3ccc(O)cc13)-c1cc3c(c(=O)n1C2)COC(=O)[C@]3(O)CC + NC1CC1c1ccc(-c2cccc(O)c2)cc1" unit_tag=% reported_value=0.9
compound="CCN(c1cc(-c2ccc(CN3CCOCC3)cc2)cc(C(=O)NCc2c(C)cc(C)[nH]c2=O)c1C)C1CCOCC1 + NC1CC1c1ccc(-c2cccc(O)c2)cc1" unit_tag=% reported_value=106

###

System: OVCAR-5 complex spheroids, viability
Experiment: Anticancer human tumor OVCAR-5 cell line growth inhibition; active = viability on the fitted dose curve at most 10% of control; inactive = the rest;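 further: spheroids exposed to agents for seven days; 100% = DMSO vehicle control wells viability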
Conditions: second compound 0.1 µM; first compound 0.03 µM
Possible outcomes: 1 (active), -1 (inactive)

molecule="CCN(c1cc(-c2ccc(CN3CCOCC3)cc2)cc(C(=O)NCc2c(C)cc(C)[nH]c2=O)c1C)C1CCOCC1 + NC1CC1c1ccc(-c2cccc(O)c2)cc1" cat=-1
molecule="CCc1c2c(nc3ccc(O)cc13)-c1cc3c(c(=O)n1C2)COC(=O)[C@]3(O)CC + NC1CC1c1ccc(-c2cccc(O)c2)cc1" cat=1
molecule="NS(=O)(=O)OCC1CC(n2ccc3c(NC4CCc5ccccc54)ncnc32)CC1O (stereo not given) + NC1CCC(NC2CC2c2ccccc2)CC1" cat=-1
molecule="O=C(C=Cc1cccc(S(=O)(=O)Nc2ccccc2)c1)NO + NC1CC1c1ccc(-c2cccc(O)c2)cc1" cat=-1
molecule="Nc1ncn(C2CC(O)C(CO)S2)c(=O)n1 (stereo not given) + NC1CCC(NC2CC2c2ccccc2)CC1" cat=-1

###

Test system: OVCAR-5 complex spheroids, viability
Assay: Anticancer human tumor OVCAR-5 cell line growth inhibition;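 further: spheroids exposed to agents for seven days; 100% = DMSO vehicle control wells viability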
Details: second compound 3.16 µM; first compound 0.3 µM; stronger effect = lower value
Criterion: viability, T/C strictly less than 30%. Met: Met. Not met: Not met.

compound="Nc1ncn(C2CC(O)C(CO)S2)c(=O)n1 (configuration not stated) + NC1CC1c1ccc(-c2cccc(O)c2)cc1" target_under_test="OVCAR-5 complex spheroids, viability" cat="Not met"
compound="NS(=O)(=O)OCC1CC(n2ccc3c(NC4CCc5ccccc54)ncnc32)CC1O (configuration not stated) + NC1CC1c1ccc(-c2cccc(O)c2)cc1" target_under_test="OVCAR-5 complex spheroids, viability" cat=Met
compound="NS(=O)(=O)OCC1CC(n2ccc3c(NC4CCc5ccccc54)ncnc32)CC1O (configuration not stated) + NC1CCC(NC2CC2c2ccccc2)CC1" target_under_test="OVCAR-5 complex spheroids, viability" cat="Not met"
compound="O=C(C=Cc1cccc(S(=O)(=O)Nc2ccccc2)c1)NO + NC1CC1c1ccc(-c2cccc(O)c2)cc1" target_under_test="OVCAR-5 complex spheroids, viability" cat=Met
compound="O=C(C=Cc1cccc(S(=O)(=O)Nc2ccccc2)c1)NO + NC1CCC(NC2CC2c2ccccc2)CC1" target_under_test="OVCAR-5 complex spheroids, viability" cat="Not met"
compound="CCN(c1cc(-c2ccc(CN3CCOCC3)cc2)cc(C(=O)NCc2c(C)cc(C)[nH]c2=O)c1C)C1CCOCC1 + NC1CC1c1ccc(-c2cccc(O)c2)cc1" target_under_test="OVCAR-5 complex spheroids, viability" cat="Not met"
